Catalogue of IC50 values
Target: Phosphodiesterase 1 (Rattus norvegicus, UniProt Q63421+Q9EPR9+Q01066)
Assay: Evaluated for Ca++ dependent phosphodiesterase activity.
Assay type: functional
OBSERVATION TYPE: IC50 (µM)

{"columns": ["SMILES CODE", "UNIT OF MEASUREMENT", "INEQUALITY OPERATOR", "TEST VALUE"],
 "data": [
  ["CCNc1nc2ccccc2n2c(CC)nnc12", "µM", "=", 20],
  ["CCc1nnc2c(N)nc3ccccc3n12", "µM", "=", 2],
  ["CC(C)Nc1nc2ccc(F)cc2n2cnnc12", "µM", ">", 100],
  ["Nc1nc2ccc(Cl)cc2n2c(C(F)(F)F)nnc12", "µM", ">", 10],
  ["FC(F)(F)c1nnc2c(NC3CCCCC3)nc3ccc(Cl)cc3n12", "µM", ">", 10],
  ["CC(C)Nc1nc2ccc(Cl)cc2n2c(C(F)(F)F)nnc12", "µM", "=", 1],
  ["CCc1nnc2c(NC(C)C)nc3ccccc3n12", "µM", "=", 3]
]}

----------
Catalogue of IC50 values
Molecular target: Adenosine receptor A1 (Rattus norvegicus)
Assay: Binding affinity towards the adenosine A1 receptor in cerebral cortices of Sprague-Dawley male rats using [3H]CHA as radioligand.
OBSERVATION TYPE: IC50 (nM)

{"columns": ["SMILES CODE", "OBSERVATION TYPE", "TEST VALUE"],
 "data": [
  ["CC(C)Nc1nc2ccc(Cl)cc2n2cnnc12", "IC50", 370],
  ["CCc1nnc2c(N)nc3cc(OC)ccc3n12", "IC50", 140],
  ["CCc1nnc2c(NC(C)C)nc3cc(F)c(F)cc3n12", "IC50", 280],
  ["Oc1cccc(C2=CSC3=Nc4ccccc4CN23)c1", "IC50", 18000],
  ["CCc1nnc2c(N(C(C)=O)C(C)=O)nc3ccccc3n12", "IC50", 9300],
  ["CNc1nc2ccccc2n2cnnc12", "IC50", 100000],
  ["Fc1ccc2nc(NC3CCCCC3)c3nnc(C(F)(F)F)n3c2c1", "IC50", 32],
  ["FC(F)(F)c1nnc2c(NC3CCCCC3)nc3ccc(Cl)cc3n12", "IC50", 28],
  ["Nc1nc2cc(Cl)ccc2n2cnnc12", "IC50", 1200],
  ["Nc1nc2ccc(Cl)cc2n2c(C(F)(F)F)nnc12", "IC50", 65]
]}

----------
Target: Adenosine receptor A1 (Rattus norvegicus, UniProt P25099)
Sequence (P25099 whole entry): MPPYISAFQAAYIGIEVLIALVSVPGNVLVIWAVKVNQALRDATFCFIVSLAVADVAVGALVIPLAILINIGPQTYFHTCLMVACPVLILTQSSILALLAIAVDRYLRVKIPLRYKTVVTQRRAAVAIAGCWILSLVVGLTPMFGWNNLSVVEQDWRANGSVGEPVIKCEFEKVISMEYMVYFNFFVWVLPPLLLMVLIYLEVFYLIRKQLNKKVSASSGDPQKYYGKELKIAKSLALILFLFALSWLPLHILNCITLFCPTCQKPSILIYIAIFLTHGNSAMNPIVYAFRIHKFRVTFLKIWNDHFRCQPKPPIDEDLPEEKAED
Assay: Binding affinity towards the adenosine A1 receptor in cerebral cortices of Sprague-Dawley male rats using [3H]CHA as radioligand.
pIC50: −log10 of the molar value.
OBSERVATION TYPE: pIC50

{"columns": ["COMPOUND", "SYSTEM NAME", "TEST VALUE"],
 "data": [
  ["CCc1nnc2c(N)nc3cc(Cl)ccc3n12", "Adenosine receptor A1 (Rattus norvegicus, UniProt P25099)", 7.12],
  ["CC(C)Nc1nc2ccc(F)cc2n2cnnc12", "Adenosine receptor A1 (Rattus norvegicus, UniProt P25099)", 6.17],
  ["CC(C)(C)Nc1nc2ccccc2n2cnnc12", "Adenosine receptor A1 (Rattus norvegicus, UniProt P25099)", 4.72],
  ["CCNc1nc2ccccc2n2c(CC)nnc12", "Adenosine receptor A1 (Rattus norvegicus, UniProt P25099)", 5.74],
  ["CN(C)c1nc2ccccc2n2cnnc12", "Adenosine receptor A1 (Rattus norvegicus, UniProt P25099)", 4.23],
  ["c1ccc2c(c1)nc(N1CCCC1)c1nncn12", "Adenosine receptor A1 (Rattus norvegicus, UniProt P25099)", 4.30],
  ["CC(C)Cn1c(=O)n(C)c(=O)c2nc[nH]c21 [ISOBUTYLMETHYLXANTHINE]", "Adenosine receptor A1 (Rattus norvegicus, UniProt P25099)", 5.15],
  ["CC(C)Nc1nc2ccc(Cl)cc2n2c(C(F)(F)F)nnc12", "Adenosine receptor A1 (Rattus norvegicus, UniProt P25099)", 7.62],
  ["CC(C)Nc1nc2cc(Cl)c(Cl)cc2n2cnnc12", "Adenosine receptor A1 (Rattus norvegicus, UniProt P25099)", 6.00],
  ["CC(C)Nc1nc2cc(F)c(F)cc2n2cnnc12", "Adenosine receptor A1 (Rattus norvegicus, UniProt P25099)", 5.72],
  ["CC(C)Nc1nc2ccc(Cl)cc2n2c(-c3ccccc3)nnc12", "Adenosine receptor A1 (Rattus norvegicus, UniProt P25099)", 5.49],
  ["CCNc1nc2ccc(F)cc2n2c(C(F)(F)F)nnc12", "Adenosine receptor A1 (Rattus norvegicus, UniProt P25099)", 6.64]
]}
